# maps each entry to its relative activity (%) vs Ref(TEVA)
- target entity: CGRP antigen
- protocol: cell-based or functional assay
API: value field is a number in %; no unit string.

hu66 (antibody, V domains shown, 1F5 HC-4/1A2 LC2-1) VH: QVQLVQSGSELKKPGASVKVSCKASGYTFTDFNMHWVRQAPGQGLEWMGYIYPYNGDVVYNQNFTNRFVLSVDSSSSTAYLQISSLKAEDTAVYYCAREGLGGYWGQGTLVTVSS VL: DIVLTQSPASLAVSPGQRATITCKASQNIDYDGYAYLNWYQQKPGQPPKVLIYSVFNLESGVPARFSGSGSGTDFTLTINPVEANDTANYYCQQSNEFPYTFGQGTKLEIK = 89
hu128 (antibody, V domains shown, 2B8 HC1-2/3E5 LC-1) VH: QVQLVQSGAEVKKPGASVKVSCKASGYTFTDYNMHWVRQAPGQGLEWMGNIYPYNGGTVYNQKFNNRVTLTVDTSSSTAYMELRSLRSDDTAVYYCAREGLGGYWGQGTLVTVSS VL: DIVLTQSPDSLAVSLGERATINCKASQNIDYDGYTYLNWYQQKPGQPPKVLIYSIFNLESGVPDRFSGSGSGTDFTLTISSLQAEDVAVYYCQQSNEVPYTFGQGTKLEIK = 28

The record that follows has no relative activity (%) vs Ref(TEVA) shown yet.
Consider hu100 (antibody, V domains shown, 2A2 HC-1/2B8 LC2-1) VH: QVQLVQSGAEVKKPGASVKVSCKASGYTFTDYNMHWVRQAPGQRLEWMGYVYPYNGGSAYNQKFKSRVTLTVDTSSSTAYMELSSLRSEDTAVYYCAREGLGGYWGQGTLVTVSS VL: DIVLTQSPDSLAVSLGERATINCQASQNIDGNTYMNWYQQKPGQPPKVLIYSIFNLESGVPDRFSGSGSGTDFTLTISSLQAEDVAVYYCQQSNDYPYTFGQGTKLEIK . Its measured relative activity (%) vs Ref(TEVA) is 28
